molecular target: VEGF165 (Homo sapiens, UniProt P15692-4 P15692-4:27-191); test: filter; 37C; Ca2+ dependent; conditions: tags: R&D Systems carrier-free, expressed in Sf21 insect cells; chain copies: homodimer (inferred)
Sequence (P15692 other isoform, or with tags, fused parts or gaps): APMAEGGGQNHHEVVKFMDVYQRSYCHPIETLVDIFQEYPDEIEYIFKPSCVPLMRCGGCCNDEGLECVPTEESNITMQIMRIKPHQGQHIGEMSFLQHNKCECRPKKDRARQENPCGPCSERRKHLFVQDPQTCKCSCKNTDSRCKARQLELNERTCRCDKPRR
Readout kind: pKd
pKd (log units): -log10 of the concentration in mol/L.

Query :: Please report the recorded pKd for GCGGAAUCAGUGAAUGCUUAUACAUCCGCT (ssRNA, 2'-F pyrimidines; 3'-3' dT cap (N30) [30 (3'-3' dT cap); all C/U 2'-F]) [t44] .
Result :: 11.00
